Taken from the RNAGym collection of RNA variant scans (doi:10.1101/gad.245936.114).

B1: tRNA (parent)
chain: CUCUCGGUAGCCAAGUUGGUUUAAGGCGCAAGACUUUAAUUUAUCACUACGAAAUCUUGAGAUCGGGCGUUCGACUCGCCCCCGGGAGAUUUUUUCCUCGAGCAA

variants of: B1; experiment: nonsense suppression (GFP-seq) (ratio to wild type); higher = more function; SUP4oc tRNA, yeast GFP reporter sort-seq
Variants at the floor of the assay were thinned out.
ASSAY ENDPOINT: nonsense suppression

Would you mind telling me what nonsense suppression value was observed for C1G A9G C11A U21A A30C G78A ?
≤ 0.026

Would you mind telling me what nonsense suppression value was observed for A13U C27U ?
0.209

Would you mind telling me what nonsense suppression value was observed for U4C G7U ?
0.202

Would you mind telling me what nonsense suppression value was observed for C56U U58C G66U ?
≤ 0.026

Would you mind telling me what nonsense suppression value was observed for U58G G59A C80U G86U ?
≤ 0.026

Would you mind telling me what nonsense suppression value was observed for G19A A54G G67A ?
≤ 0.026

Would you mind telling me what nonsense suppression value was observed for A23G G69C ?
≤ 0.026
